Where these numbers come from: ChEMBL document CHEMBL1201862

- system.name: Low molecular weight phosphotyrosine protein phosphatase (Homo sapiens);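 note: Dose-response confirmation assay measuring inhibition of LMPTP enzyme activity by fluorescence intensity read-out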
- Sequence (P24666 whole entry): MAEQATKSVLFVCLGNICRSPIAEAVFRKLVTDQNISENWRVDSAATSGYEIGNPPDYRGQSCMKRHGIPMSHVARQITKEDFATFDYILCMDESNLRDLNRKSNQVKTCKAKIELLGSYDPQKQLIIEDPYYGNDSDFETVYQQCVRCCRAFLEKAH
- Assay type: functional
- test.parameters: read-out: IC50_Mean
Activity calls are given as the source filed them.
Outcomes: T for active, F for inactive

smiles_text=CCn1cc(C(=O)O)c(=O)c2cc(F)c(N3CCN(C(=S)NC(=O)c4ccc(OC)cc4)CC3)cc21 assigned_category=T
smiles_text=CN1CCc2c(sc(/N=C/c3c[nH]c4ccccc34)c2C(N)=O)C1 assigned_category=F
smiles_text=O=C(COc1ccc(/C=N/NC(=O)c2ccc(O)cc2)cc1)Nc1cccc([N+](=O)[O-])c1 assigned_category=T
smiles_text=CCCCCn1c(N)c(-c2nc3ccccc3o2)c2c([N+](=O)[O-])nn(CC)c(=O)c21 assigned_category=T

---

- system.name: Voltage-dependent T-type calcium channel subunit alpha-1H (Homo sapiens);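 note: channel activity triggered by adding a high calcium stimulation buffer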
- Sequence (O95180 whole entry): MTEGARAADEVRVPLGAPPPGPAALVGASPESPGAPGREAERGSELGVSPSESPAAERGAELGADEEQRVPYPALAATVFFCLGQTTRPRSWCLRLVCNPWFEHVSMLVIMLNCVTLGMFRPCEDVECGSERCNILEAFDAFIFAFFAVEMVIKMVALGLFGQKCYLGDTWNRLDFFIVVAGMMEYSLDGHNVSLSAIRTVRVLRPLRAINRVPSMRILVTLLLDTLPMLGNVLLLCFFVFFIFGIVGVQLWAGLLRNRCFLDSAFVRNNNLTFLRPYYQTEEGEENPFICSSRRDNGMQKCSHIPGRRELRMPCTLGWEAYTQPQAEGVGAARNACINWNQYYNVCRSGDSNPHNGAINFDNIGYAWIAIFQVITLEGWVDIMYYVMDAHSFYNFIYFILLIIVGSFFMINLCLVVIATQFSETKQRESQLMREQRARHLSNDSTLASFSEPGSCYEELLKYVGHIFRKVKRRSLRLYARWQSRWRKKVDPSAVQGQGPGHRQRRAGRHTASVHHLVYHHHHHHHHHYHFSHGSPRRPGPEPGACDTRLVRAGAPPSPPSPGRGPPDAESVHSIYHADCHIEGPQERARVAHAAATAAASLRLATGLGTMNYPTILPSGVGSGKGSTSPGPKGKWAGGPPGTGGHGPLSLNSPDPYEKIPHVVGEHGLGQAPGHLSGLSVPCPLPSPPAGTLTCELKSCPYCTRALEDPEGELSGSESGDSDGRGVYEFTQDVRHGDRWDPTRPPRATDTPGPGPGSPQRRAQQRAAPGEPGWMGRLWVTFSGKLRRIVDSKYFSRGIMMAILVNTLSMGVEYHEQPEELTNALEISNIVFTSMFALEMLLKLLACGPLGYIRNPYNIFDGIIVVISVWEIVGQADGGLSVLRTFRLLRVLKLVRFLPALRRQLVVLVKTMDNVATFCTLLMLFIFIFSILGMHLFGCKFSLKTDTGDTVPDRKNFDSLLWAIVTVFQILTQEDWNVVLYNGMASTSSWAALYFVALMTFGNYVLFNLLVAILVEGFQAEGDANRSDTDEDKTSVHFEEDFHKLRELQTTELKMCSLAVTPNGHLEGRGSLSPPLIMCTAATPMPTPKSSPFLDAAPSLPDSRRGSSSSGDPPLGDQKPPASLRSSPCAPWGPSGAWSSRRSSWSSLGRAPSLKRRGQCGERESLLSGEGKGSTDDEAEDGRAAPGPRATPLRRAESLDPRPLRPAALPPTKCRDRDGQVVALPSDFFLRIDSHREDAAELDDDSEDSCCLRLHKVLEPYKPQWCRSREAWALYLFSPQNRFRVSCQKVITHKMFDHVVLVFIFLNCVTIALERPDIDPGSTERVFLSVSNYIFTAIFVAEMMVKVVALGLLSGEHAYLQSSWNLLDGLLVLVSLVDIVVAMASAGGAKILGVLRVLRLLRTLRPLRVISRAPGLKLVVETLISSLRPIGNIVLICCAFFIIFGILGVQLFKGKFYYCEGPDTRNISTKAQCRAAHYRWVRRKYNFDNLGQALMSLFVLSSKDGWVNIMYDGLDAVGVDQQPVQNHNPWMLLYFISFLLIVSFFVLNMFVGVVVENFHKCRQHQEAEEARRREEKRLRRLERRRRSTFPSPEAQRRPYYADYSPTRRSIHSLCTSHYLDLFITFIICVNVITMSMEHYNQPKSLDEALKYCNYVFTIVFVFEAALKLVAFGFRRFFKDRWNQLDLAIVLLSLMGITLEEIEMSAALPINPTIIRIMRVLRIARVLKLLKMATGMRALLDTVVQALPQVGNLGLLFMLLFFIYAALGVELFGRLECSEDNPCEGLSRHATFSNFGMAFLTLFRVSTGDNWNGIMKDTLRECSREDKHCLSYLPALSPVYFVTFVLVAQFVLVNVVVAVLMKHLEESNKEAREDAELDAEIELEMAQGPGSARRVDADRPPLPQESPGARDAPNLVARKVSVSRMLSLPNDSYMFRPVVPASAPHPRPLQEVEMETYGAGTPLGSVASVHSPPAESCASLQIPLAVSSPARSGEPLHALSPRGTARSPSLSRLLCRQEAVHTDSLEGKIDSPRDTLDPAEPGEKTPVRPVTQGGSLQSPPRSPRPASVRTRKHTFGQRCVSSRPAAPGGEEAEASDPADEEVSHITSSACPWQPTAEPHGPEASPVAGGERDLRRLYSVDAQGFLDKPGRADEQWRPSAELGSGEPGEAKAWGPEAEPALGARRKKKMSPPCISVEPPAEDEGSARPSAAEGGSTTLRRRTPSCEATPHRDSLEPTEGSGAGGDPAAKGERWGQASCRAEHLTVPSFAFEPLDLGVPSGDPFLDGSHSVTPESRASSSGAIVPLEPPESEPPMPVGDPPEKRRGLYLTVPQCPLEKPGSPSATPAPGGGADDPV
- Format: functional
Activity calls are given as the source filed them.
readout.kind: EC50

compound=CCCn1c(NCc2c[nH]c3ccccc23)nc2ccccc21 result="5.89 µM (active)"
compound=Cc1[nH]c2ccccc2c1NC(=O)CN1CCN(c2cccc(C(F)(F)F)c2)CC1 result="4.61 µM (active)"
compound="O=C(NCc1ccc2c(c1)OCO2)C1CC(c2ccc(Cl)cc2)=NO1 (configuration not stated)" result="0.496 µM (active)"
compound=Cc1nc(SCC(=O)NCc2ccc3c(c2)OCO3)c(C#N)c2c1CCCC2 result="5.41 µM (active)"
compound="CCC1Sc2ccccc2N(CC(=O)NCCC2=CCCCC2)C1=O (configuration not stated)" result="4.76 µM (active)"
compound="COc1ccc(NC(=O)C2CCCN2S(=O)(=O)c2ccc3c(c2)CCC(=O)N3)cc1 (configuration not stated)" result="9.23 µM (active)"
compound="CC1CCCN(C(=O)CSCC(=O)Nc2nc(-c3cccs3)cs2)C1 (configuration not stated)" result="4.52 µM (active)"

---

- system.name: Protein RecA (Mycobacterium tuberculosis, UniProt P9WHJ3)
- protocol: Fluorescence Cell-Free Homogeneous Dose Retest to Identify Inhibitors of RecA-Intein Splicing Activity. [Related pubchem assays (depositor defined):AID2097, AID2223, AID489010, AID492950]
- Assay type: functional
Active and inactive are the calls of the source.
Classes used: Yes = active, No = inactive

molecule=O=C(O)c1cccc(Nc2cc(Cl)c3nonc3c2[N+](=O)[O-])c1 system_name="Protein RecA (Mycobacterium tuberculosis, UniProt P9WHJ3)" assigned_category=Yes
molecule="CCOC(=O)C1=C(c2ccccc2)N=C(N)NC1c1ccc(OCc2ccc(C(=O)OC)cc2)cc1 (centres undefined)" system_name="Protein RecA (Mycobacterium tuberculosis, UniProt P9WHJ3)" assigned_category=Yes
molecule=CC1(CC(=O)N/N=C/c2ccc(OCc3ccc(Cl)cc3Cl)cc2)OCCCO1 system_name="Protein RecA (Mycobacterium tuberculosis, UniProt P9WHJ3)" assigned_category=Yes
molecule=Cc1ccc(S[C@@H](CCN2CC[C@H](C)CCC2=O)c2ccccc2)cc1 system_name="Protein RecA (Mycobacterium tuberculosis, UniProt P9WHJ3)" assigned_category=Yes
molecule=CCOC(=O)C1=C(c2ccccc2)O/C(=C(/C#N)C(F)(F)F)S1 system_name="Protein RecA (Mycobacterium tuberculosis, UniProt P9WHJ3)" assigned_category=Yes
molecule=Cc1ccc2c(c1)-c1c(ssc1=S)C(C)(C)N2C(=O)CSC1=NCCS1 system_name="Protein RecA (Mycobacterium tuberculosis, UniProt P9WHJ3)" assigned_category=Yes
molecule="CC1(C)CC2=Nc3nn(-c4ccccc4)c(O)c3C(c3ccc4c(c3)OCO4)C2=C(O)C1 (centres undefined)" system_name="Protein RecA (Mycobacterium tuberculosis, UniProt P9WHJ3)" assigned_category=Yes
molecule=CCOc1ccc(S(=O)(=O)NCc2cccnc2)cc1C system_name="Protein RecA (Mycobacterium tuberculosis, UniProt P9WHJ3)" assigned_category=No
molecule=CC1=NN(c2cccc([N+](=O)[O-])c2)C(=O)C1 system_name="Protein RecA (Mycobacterium tuberculosis, UniProt P9WHJ3)" assigned_category=Yes

---

- System: H9c2;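 note: cell death induced by hydrogen peroxide oxidative stress; compound pretreatment for 60 min then peroxide exposure for 2 h; potency is for protecting the cells against peroxide damage rather than for killing them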;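 note: confirmatory concentration-response retest of ultra-high-throughput screening hits for modulation of myocardial damage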
- protocol: cells
- Format: functional, cell-based
- test.parameters: Rattus norvegicus, H9c2, Myocardium
Calls of active or inactive are those of the source.
Outcomes: yes for active, no for inactive

smiles_text=CCN1C(=O)[C@H]2[C@@H](c3ccc(-c4ccc(C(C)=O)cc4)cc3)N[C@@](C)(C(=O)OC)[C@H]2C1=O assigned_category=no
smiles_text=O=C(CCc1nc(O)c2ccccc2n1)OCc1nnc(-c2ccccc2)o1 assigned_category=yes
smiles_text=CSc1nc(O)c2c3c(sc2n1)CCC3 assigned_category=no
smiles_text=CC(C)(C)OC(=O)NCc1ccc(NC(=O)c2[nH]cnc2C(=O)NCCCCCCNC(=O)c2nc[nH]c2C(=O)Nc2ccc(CNC(=O)OC(C)(C)C)cc2)cc1 assigned_category=no

---

- system.name: Serine/threonine-protein phosphatase (Candida dubliniensis (strain CD36 / CBS 7987 / NCPF 3949 / NRRLY-17841) (Yeast), UniProt B9W6M3)
- Sequence (B9W6M3 whole entry): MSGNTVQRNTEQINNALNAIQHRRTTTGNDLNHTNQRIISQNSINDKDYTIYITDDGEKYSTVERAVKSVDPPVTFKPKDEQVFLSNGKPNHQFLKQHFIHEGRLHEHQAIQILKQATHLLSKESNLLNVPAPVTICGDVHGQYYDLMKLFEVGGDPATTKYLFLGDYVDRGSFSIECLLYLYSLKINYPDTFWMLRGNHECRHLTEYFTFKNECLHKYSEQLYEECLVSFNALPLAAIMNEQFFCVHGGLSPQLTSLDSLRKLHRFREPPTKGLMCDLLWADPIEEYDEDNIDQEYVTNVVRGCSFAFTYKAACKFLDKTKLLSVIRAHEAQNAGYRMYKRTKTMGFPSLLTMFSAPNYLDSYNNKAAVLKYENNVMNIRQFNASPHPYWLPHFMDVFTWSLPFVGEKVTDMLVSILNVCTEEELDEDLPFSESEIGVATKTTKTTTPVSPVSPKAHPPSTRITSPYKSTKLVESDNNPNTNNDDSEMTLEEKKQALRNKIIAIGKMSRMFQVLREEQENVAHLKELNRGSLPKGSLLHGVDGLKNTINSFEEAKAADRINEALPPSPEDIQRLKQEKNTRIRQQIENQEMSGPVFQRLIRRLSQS
- protocol: blockers of CaCl2-induced CDRE-lacZ signaling – S. cerevisiae, luminescence, secondary, dose response (AID 2388);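 note: yeast reporter cells carrying a calcineurin-responsive lacZ construct stimulated with calcium chloride; luminescent beta-galactosidase reporter signal in whole cells rather than isolated phosphatase activity; potency for inhibition where a drop in reporter signal means calcineurin blockade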
- Type: functional, cell-based
The source made the active and inactive calls.
Possible outcomes: yes = active, no = inactive

compound=CCCCC(=O)NC(=S)Nc1cccc(NC(=O)c2ccco2)c1 assigned_category=no
compound=C(C#CCCCCCCCCC[n+]1ccccc1)#CCCCCCCCCC[n+]1ccccc1 assigned_category=no
compound=COc1ccc(C2=NN(c3nc4ccccc4s3)C(=O)C2)cc1 assigned_category=yes
compound=COc1cccc(/C=N/NC(=O)c2c(C)nc3ccc(Br)cn23)c1O assigned_category=no
compound="C=CCNC(S)=Nc1sc2c(c1C(=O)OCC)CC(C)(CC)OC2 (stereo not given)" assigned_category=no

---

- system.name: Induced myeloid leukemia cell differentiation protein Mcl-1 (Homo sapiens)
- Sequence (Q07820 whole entry): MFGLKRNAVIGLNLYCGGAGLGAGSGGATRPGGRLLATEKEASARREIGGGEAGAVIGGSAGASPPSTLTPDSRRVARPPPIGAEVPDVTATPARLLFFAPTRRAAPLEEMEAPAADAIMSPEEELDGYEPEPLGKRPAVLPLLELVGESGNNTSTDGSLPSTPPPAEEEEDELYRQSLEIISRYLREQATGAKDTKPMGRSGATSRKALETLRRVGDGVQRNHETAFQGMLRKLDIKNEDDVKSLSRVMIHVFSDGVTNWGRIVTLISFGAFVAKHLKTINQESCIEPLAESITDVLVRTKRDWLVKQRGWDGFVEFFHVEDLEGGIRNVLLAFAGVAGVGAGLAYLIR
- Assay type: functional
Activity calls are given as the source filed them.
readout.kind: IC50

smiles_text=Cc1cccc2cc(/C=N/NC(=O)c3ccccc3O)c(Cl)nc12 system_name="Induced myeloid leukemia cell differentiation protein Mcl-1 (Homo sapiens)" readout_kind=IC50 result="5.52 µM (active)"
smiles_text=COc1ccccc1C1=Nc2cccc3cccc(c23)N1 system_name="Induced myeloid leukemia cell differentiation protein Mcl-1 (Homo sapiens)" readout_kind=IC50 result="< 0.4 µM (not active)"
smiles_text=CN(C)c1ccc(NC(=O)c2ccc([N+](=O)[O-])cc2Cl)cc1 system_name="Induced myeloid leukemia cell differentiation protein Mcl-1 (Homo sapiens)" readout_kind=IC50 result="1.11 µM (not active)"
smiles_text=O=C1NC(=S)S/C1=C\c1ccc(SCc2ccco2)o1 system_name="Induced myeloid leukemia cell differentiation protein Mcl-1 (Homo sapiens)" readout_kind=IC50 result="1.53 µM (active)"
smiles_text=N=C1S/C(=C\c2ccco2)C(=O)N1c1ccc2c(c1)OCO2 system_name="Induced myeloid leukemia cell differentiation protein Mcl-1 (Homo sapiens)" readout_kind=IC50 result="9.96 µM (active)"
smiles_text=CC(=O)Nc1sc(N/N=C\c2ccco2)nc1-c1cccs1 system_name="Induced myeloid leukemia cell differentiation protein Mcl-1 (Homo sapiens)" readout_kind=IC50 result="5.23 µM (active)"
smiles_text=CC1=C(SCCC#N)S/C(=C2\SC(C)=C(SCCC#N)S2)S1 system_name="Induced myeloid leukemia cell differentiation protein Mcl-1 (Homo sapiens)" readout_kind=IC50 result="2.89 µM (active)"
smiles_text=Nc1ccc2[nH]c(-c3ccc(Cl)cc3)nc2c1 system_name="Induced myeloid leukemia cell differentiation protein Mcl-1 (Homo sapiens)" readout_kind=IC50 result="8.16 µM (not active)"

---

- system.name: Zinc finger protein mex-5 (Caenorhabditis elegans)
- Sequence (Q9XUB2 whole entry): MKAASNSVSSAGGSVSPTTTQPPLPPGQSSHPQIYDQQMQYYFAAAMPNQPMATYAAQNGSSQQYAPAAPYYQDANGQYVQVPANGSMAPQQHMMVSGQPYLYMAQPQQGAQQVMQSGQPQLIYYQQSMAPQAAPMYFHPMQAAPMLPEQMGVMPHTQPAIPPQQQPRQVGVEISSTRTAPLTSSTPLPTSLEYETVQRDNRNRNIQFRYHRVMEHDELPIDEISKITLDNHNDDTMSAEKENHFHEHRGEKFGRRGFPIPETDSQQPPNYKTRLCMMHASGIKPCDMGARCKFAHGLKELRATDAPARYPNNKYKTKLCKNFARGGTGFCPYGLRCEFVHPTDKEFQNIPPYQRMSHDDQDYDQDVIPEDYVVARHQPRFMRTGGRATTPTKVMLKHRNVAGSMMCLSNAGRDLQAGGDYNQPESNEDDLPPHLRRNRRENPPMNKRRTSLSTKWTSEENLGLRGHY
- protocol: potency of MEX-5 RNA-binding blockers – biochemical, C. elegans, fluorescence polarization, dose response (AID 1960)
Activity calls are given as the source filed them.
readout.kind: EC50

compound=O=C(NNC(=O)c1ccccc1[N+](=O)[O-])/C(O)=C/C(=O)c1ccccc1 system_name="Zinc finger protein mex-5 (Caenorhabditis elegans)" readout_kind=EC50 result="1.11 µM (active)"
compound=CC(=O)c1cc(NC(=O)c2cccc(C(F)(F)F)c2)c(=O)oc1/C=C/N(C)C system_name="Zinc finger protein mex-5 (Caenorhabditis elegans)" readout_kind=EC50 result="> 300 µM (inconclusive)"
compound=Cc1cc(C=O)c(C)n1-c1ccc(Cl)c(C(=O)O)c1 system_name="Zinc finger protein mex-5 (Caenorhabditis elegans)" readout_kind=EC50 result="> 300 µM (not active)"
compound=CCOC(=O)N1CCN(CC(=O)c2ccc(O)cc2O)CC1 system_name="Zinc finger protein mex-5 (Caenorhabditis elegans)" readout_kind=EC50 result="40.7 µM (active)"
compound=O=C1NC(=O)C(=Cc2ccc(-c3ccc(S(=O)(=O)N4CCOCC4)cc3)o2)C(=O)N1 system_name="Zinc finger protein mex-5 (Caenorhabditis elegans)" readout_kind=EC50 result="34.7 µM (active)"
compound="Cc1nnc(N2C(=O)C(O)=C(C(=O)c3ccco3)C2c2ccc(C(C)(C)C)cc2)s1 (stereo unspecified)" system_name="Zinc finger protein mex-5 (Caenorhabditis elegans)" readout_kind=EC50 result="7.86 µM (active)"
compound=O=C(O)c1ccccc1N(c1ccccc1)c1ccccc1 system_name="Zinc finger protein mex-5 (Caenorhabditis elegans)" readout_kind=EC50 result="> 300 µM (not active)"
compound=O=C(c1ccco1)N1CCc2ccccc21 system_name="Zinc finger protein mex-5 (Caenorhabditis elegans)" readout_kind=EC50 result="169 µM (active)"
compound="CC(C)CNC(=O)C1Nc2ccc(OC(F)(F)F)cc2C2C=CCC12 (stereo unspecified)" system_name="Zinc finger protein mex-5 (Caenorhabditis elegans)" readout_kind=EC50 result="> 300 µM (not active)"
compound=CN(C)c1ccc(/C=N/NC2=NS(=O)(=O)c3ccccc32)cc1 system_name="Zinc finger protein mex-5 (Caenorhabditis elegans)" readout_kind=EC50 result="> 300 µM (inconclusive)"
compound="Cc1cccn2c(=O)c3cc(S(=O)(=O)c4ccccc4)c(=N)n(CC4CCCO4)c3nc12 (stereo unspecified)" system_name="Zinc finger protein mex-5 (Caenorhabditis elegans)" readout_kind=EC50 result="> 300 µM (inconclusive)"
